This collection of values is drawn from ChEMBL document CHEMBL4152367.

# Study target: Free fatty acid receptor 2 (Mus musculus)
# Sequence (Q8VCK6 whole entry): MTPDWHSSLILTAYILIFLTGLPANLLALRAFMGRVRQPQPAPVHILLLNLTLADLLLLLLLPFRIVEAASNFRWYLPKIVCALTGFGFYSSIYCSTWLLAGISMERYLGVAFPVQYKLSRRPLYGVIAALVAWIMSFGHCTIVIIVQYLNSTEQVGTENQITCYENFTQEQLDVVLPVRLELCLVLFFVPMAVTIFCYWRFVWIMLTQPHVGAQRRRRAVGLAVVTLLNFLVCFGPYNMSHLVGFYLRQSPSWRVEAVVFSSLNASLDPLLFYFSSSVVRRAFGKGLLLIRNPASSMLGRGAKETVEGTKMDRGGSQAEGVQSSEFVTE
# Experiment summary: Agonist activity at FFA2R in mouse mature adipocytes assessed as inhibition of isoproterenol-induced glycerol production
Parameter measured: EC50 (µM)
Number in µM, nothing else.

Endpoint output: EC50 of CCC(=O)O . Value?
251

###

# Experiment summary: Total clearance in Balb/c mouse at 5 mg/kg, iv by HPLC-MS/MS analysis
# Format: ADME, organism-based
# Condition summary: in vivo
Parameter measured: clearance
Param answer (str): number followed by unit.

Give the measured clearance of Cc1noc(C)c1-c1ccc(C(=O)N2[C@@H](c3ccccc3Cl)SC[C@H]2C(=O)O)cc1 .
20.3 mL/min/kg

###

# Experiment summary: Oral bioavailability in Balb/c mouse at 10 mg/kg by HPLC-MS/MS analysis
# Format: ADME, organism-based
# Condition summary: in vivo
Parameter measured: bioavailability (%)
Respond with the bare value in %.

bioavailability for Cc1noc(C)c1-c1ccc(C(=O)N2[C@@H](c3ccccc3Cl)SC[C@H]2C(=O)O)cc1 ?
32

###

Reported half-life values are given for each entry in this list.
# Experiment summary: Half life in Balb/c mouse at 5 mg/kg, ip by HPLC-MS/MS analysis
# Format: ADME, organism-based
# Condition summary: in vivo
Your answer is read as h, so omit the unit and give the number.

smiles=COc1ccccc1-c1ccc(C(=O)N2[C@@H](c3ccccc3Cl)CC[C@H]2C(=O)O)cc1 parameter_measured=half-life unit_of_measure=h measured_number=0.833

Query: half-life; subject: Cc1noc(C)c1-c1ccc(C(=O)N2[C@@H](c3ccccc3Cl)SC[C@H]2C(=O)O)cc1
1.37

###

# Experiment summary: Octanol/PBS buffer partition co-efficient, log D of the compound at pH 7.4 after 24 hrs by HPLC analysis
# Format: physicochemical
Parameter measured: logD at 24 h
Enter the number alone.

Name the recorded logD at 24 h for Cc1noc(C)c1-c1ccc(C(=O)N2[C@@H](c3ccccc3Cl)SC[C@H]2C(=O)O)cc1 .
0.94

###

# Experiment summary: Cmax in Balb/c mouse at 10 mg/kg, po by HPLC-MS/MS analysis
# Assay type: ADME, organism-based
# Design: dose 10 mg/kg, route oral
# Condition summary: in vivo
Parameter measured: Cmax

Query: Cmax; subject: Cc1noc(C)c1-c1ccc(C(=O)N2[C@@H](c3ccccc3Cl)SC[C@H]2C(=O)O)cc1
2880 ng/mL

###

# Experiment summary: Volume of distribution in Balb/c mouse at 5 mg/kg, iv by HPLC-MS/MS analysis
# Type: ADME, organism-based
# Condition summary: in vivo
Parameter measured: Vd
Answer format reminder: number followed by unit.

Need Vd, item Cc1noc(C)c1-c1ccc(C(=O)N2[C@@H](c3ccccc3Cl)SC[C@H]2C(=O)O)cc1
4.05 L/kg

###

# Experiment summary: Tmax in Balb/c mouse at 10 mg/kg, po by HPLC-MS/MS analysis
# Type: ADME, organism-based
# Condition summary: in vivo
Parameter measured: Tmax (min)
Give the quantity in min, number only.

Which Tmax is listed for Cc1noc(C)c1-c1ccc(C(=O)N2[C@@H](c3ccccc3Cl)SC[C@H]2C(=O)O)cc1 ?
15
